Values compiled from ChEMBL document CHEMBL1201862.

- System: HCT-116
- method-summary: NCI tumour cell line growth inhibition, 48 h
Calls of active or inactive are those of the source. No stated cut-off is given here; in the data, active = GI50 up to about 1.1 µM and inactive = higher.
Form entry, call: pick from true for active, false for inactive

COc1cc(C2c3cc4c(cc3[C@@H](Nc3ccc(N(C)C)cc3)[C@H]3COC(=O)C23)OCO4)cc(OC)c1O (stereo partly specified) | true
CCOC(=O)c1nnsc1NN | false
CC1c2c(Cl)nc3ccccc3c2Oc2c1c(Cl)nc1ccccc21 | false
CCCCCC(=O)OC[n+]1ccc2c(C)c3[nH]c4ccccc4c3c(C)c2c1 | true

Input line: Could you please tell me the result logged for CC(=O)NCCCCNCCCNC(C)=O in this assay?
Output line: false

Input line: Param item: CC(C)(Oc1ccc(C(=O)c2ccc(Cl)cc2)cc1Cl)C(=O)Nc1c(Cl)cccc1Cl
Output line: false

Input line: Param item: COc1ccc(C(=C2C(=O)OC(=O)C2=C(C)C)c2ccc(OC)cc2)cc1
Output line: false

Input line: Param item: Cc1cc(-c2nc3cc(F)ccc3s2)ccc1NC(=O)[C@@H](N)CCCCN
Output line: false

Input line: Param item: CC(C)(C)OC(=O)CC(NC(=O)OC(C)(C)C)C(=O)Oc1ccc([N+](=O)[O-])cc1 (stereo unspecified)
Output line: false

###

- Test system: EKVX
- method-summary: NCI tumour cell line growth inhibition, 48 h
Calls of active or inactive are those of the source. No stated cut-off is given here; in the data, active = GI50 up to about 1.1 µM and inactive = higher.
Form entry, call: pick from active, inactive

Solved cases (3 shown):
Cc1ccc(-c2cc(=O)c3cc(C)c(C)c(C(=O)O)c3o2)cc1C | inactive
CCC(C#N)(c1ccccc1)N(CCc1ccccc1)C(=O)c1ccccc1 (stereo unspecified) | inactive
COC(=O)[C@]1(C)C(OC)=CC(=O)C2C1[C@H]1CCC[C@@H]21 (stereo partly specified) | inactive

Input line: Could you please tell me the result logged for COC(=O)[C@H](Cc1ccccc1)NP(=O)(OCCC#N)OCC1OC(n2cc(C)c(=O)[nH]c2=O)CC1N=[N+]=[N-] (stereo partly specified) in this assay?
Output line: inactive

Input line: Param item: COC(=O)C1=C(OC(=O)/C(=C/c2ccc(Cl)cc2)c2ccccc2)C(C(=O)OC)[C@@]2(O)[C@@H](C(=O)OC)[C@H](C)C[C@@H]1[C@@H]2C(=O)OC (stereo partly specified)
Output line: inactive

Input line: Param item: CCOC(=O)n1[nH]c(=O)n(-c2ccccc2)c1=O
Output line: inactive

###

- Test system: PC-3
- method-summary: NCI tumour cell line growth inhibition, 48 h
Calls of active or inactive are those of the source. No stated cut-off is given here; in the data, active = GI50 up to about 1.1 µM and inactive = higher.
measure: GI50

Input line: Param readout= GI50; system= PC-3; entry= CN(C(=O)Cc1cc(Cl)c(Cl)cc1N=C=S)[C@H]1CCCC[C@@H]1N1CCCC1 ; returns value.
Output line: 13.5 µM (inactive)

Input line: Param item: COc1ccccc1/C=C\c1cnnc2ccccc12
Output line: > 10 µM (inactive)

Input line: Param item: CC1(C)CCCC2CC2CCC(C)(C)C1=O (stereo not given)
Output line: 51.1 µM (inactive)

Input line: Param item: C/C=C(\C)c1cc(=O)c2c(C)cc3c(c2o1)C(=O)c1c(O)c(C2CC(C)(N(C)C)C(OC(C)=O)C(C)O2)cc(C2CC(N(C)C)C(O)C(C)O2)c1C3=O (stereo not given)
Output line: 1.35 µM (inactive)

Input line: Param item: O=C1C=C(c2ccccc2)OC1C1Sc2ccccc2NC1=O (stereo not given)
Output line: 10.9 µM (inactive)

Input line: Param item: C[N+]1(CCC(=O)c2ccco2)CC2CCC(CC2)C1 (stereo not given)
Output line: > 100 µM (inactive)

###

- System: T47D
- method-summary: NCI tumour cell line growth inhibition, 48 h
Activity calls are given as the source filed them. No stated cut-off is given here; in the data, active = GI50 up to about 1.1 µM and inactive = higher.
measure: GI50

Consider the following illustrative entries.
C#CC(O)/C=C/CCCCCCC#CC/C=C\CC#CCCCCCCCCC(O)C#C (centres undefined) | 10.5 µM (inactive)
C[N+]1(CCC(=O)c2ccco2)CC2CCC(CC2)C1 (centres undefined) | > 100 µM (inactive)
COC(=O)c1ccc(Oc2nc3ccccc3nc2-c2cccs2)cc1 | 60.8 µM (inactive)

Input line: Name the recorded GI50 for Cc1cc2c(C)cc(=O)[nH]c2cc1N .
Output line: > 100 µM (inactive)

Input line: Param item: O=C1CNCCCN2CCN(CCCNCC(=O)Nc3ccc(cc3)S(=O)(=O)c3ccc(cc3)NC(=O)CNCCCN3CCN(CCCNCC(=O)Nc4ccc(cc4)S(=O)(=O)c4ccc(cc4)N1)CC3)CC2
Output line: 27.9 µM (inactive)

Input line: Param item: COc1cc2c(c(OC)c1OC)C(=O)[C@@H]1[C@H]2N1C(N)=O
Output line: > 100 µM (inactive)

Input line: Param item: CN(Cc1cnc2nc(N)nc(N)c2n1)c1ccc(C(=O)NCS(=O)(=O)O)cc1
Output line: > 100 µM (inactive)

Input line: Param item: COc1ccc(-c2coc3c4c(ccc3c2=O)OCO4)cc1OC
Output line: > 100 µM (inactive)

Input line: Param item: CS(=O)(=O)OCCN(CCOS(C)(=O)=O)c1ccc(C=O)cc1
Output line: 5.92 µM (inactive)

Input line: Param item: Nc1nc2c(c(=O)[nH]1)C(c1ccc(Cl)cc1)C=C(c1ccccc1)N2 (centres undefined)
Output line: 21.8 µM (inactive)

Input line: Param item: Cc1ccc(NC(=O)C(=O)CC(=O)c2sc(Nc3c(C)cccc3C)nc2C)cc1C
Output line: > 100 µM (inactive)

Input line: Param item: OC1(C(F)(F)F)OCCN=C1C(F)(F)F (centres undefined)
Output line: > 100 µM (inactive)

Input line: Param item: O=C1CC[C@@]23CC(=O)O[C@@H]2CCCC3C1 (some centres undefined)
Output line: > 100 µM (inactive)

###

- Tested on: HOP-62
- method-summary: NCI tumour cell line growth inhibition, 48 h
Calls of active or inactive are those of the source. Rule as the data show it: active = GI50 up to about 1.1 µM and inactive = higher.
Readings of GI50 for the listed compounds

Consider the following illustrative entries.
CC(=O)N1CCN(CCCCN2c3ccccc3Sc3cc(N=[N+]=[N-])ccc32)CC1 | 14.3 µM (inactive)
O=C1c2c[nH]nc2C(c2ccccc2)N1c1ccccc1 (stereo not given) | > 10 µM (inactive)
CN1C(=O)CC2(C)c3cc(C=O)ccc3N(C)C12 (stereo not given) | > 100 µM (inactive)
Cc1cccc(O)c(=O)c1 | 39.2 µM (inactive)
CC(C)=CCNc1ncnc2c1c(C#N)cn2C1OC(CO)C(O)C1O (stereo not given) | 53.1 µM (inactive)
NN(CC(=O)O)CC(=O)O | > 100 µM (inactive)
CC1(C)CC[C@]2(C(=O)O)CC[C@]3(C)C(=CC[C@@H]4[C@@]5(C)C[C@H](O)[C@H](O)[C@@](C)(C(=O)O)[C@@H]5CC[C@]43C)[C@@H]2C1 | > 100 µM (inactive)
Cc1cc(C)c(C(=O)c2no[n+]([O-])c2C(=O)c2c(C)cc(C)c(Br)c2C)c(C)c1Br | 18.2 µM (inactive)
CC(=O)Nn1c(=S)[nH]c2ccccc21 | > 100 µM (inactive)

As a next step, examine the compound that follows.
Input line: Param readout= GI50; system= HOP-62; entry= CN(CCS(=O)(=O)N1C(=O)C2CCCN2C(=O)[C@@H]1Cc1ccccc1)C(=O)OCc1ccccc1 (stereo not given in full) ; returns value.
Output line: > 100 µM (inactive)

###

- System: CAKI-1
- method-summary: NCI tumour cell line growth inhibition, 48 h
Active and inactive are the calls of the source. Cut-off read from the data, not from the text of the source: active = GI50 up to about 1.1 µM and inactive = higher.
Form entry, call: pick from 1 for active, 0 for inactive

C#CCOCCCC(=O)O | 0
O=C1OCC2=C1C(c1ccc(Cl)cc1)c1cc3c(cc1O2)OCO3 (stereo not given) | 0
COC(=O)C[C@](O)(CCC(C)(C)O)C(=O)O[C@@H]1C(OC)=C[C@]23CCCN2CCc2cc4c(cc2[C@H]13)OCO4 [HARRINGTONINE] | 1
O=C1CCCC(=O)N1n1c(Cc2ccccc2)n[nH]c1=O | 0

Input line: Could you please tell me the result logged for O=c1c2c([N+](=O)[O-])cccc2nc2[nH]c3ccccc3n12 in this assay?
Output line: 0

###

- Test system: HL-60
- method-summary: NCI tumour cell line growth inhibition, 48 h
The source made the active and inactive calls. Rule as the data show it: active = GI50 up to about 1.1 µM and inactive = higher.
Form entry, call: pick from active, inactive

CN(C(=O)CC(=O)CP(=O)(c1ccccc1)c1ccccc1)c1ccccc1 | inactive

Now look at this one.
Input line: Could you please tell me the result logged for Cc1nc2nn(Cc3ccccc3)cc2c(=O)o1 in this assay?
Output line: inactive

###

- System: SN12C
- method-summary: NCI tumour cell line growth inhibition, 48 h
The source made the active and inactive calls. No stated cut-off is given here; in the data, active = GI50 up to about 1.1 µM and inactive = higher.
Form entry, call: pick from yes = active, no = inactive

Solved cases (5 shown):
O=C1C(Cl)C2(CC(/C=C/c3ccccc3O)=NN2c2cccc(S(=O)(=O)O)c2)N1c1nc2ccccc2s1 (configuration not stated) | no
Cc1cc(N(CCC#N)CCC#N)ccc1/C=C(\NC(=O)/C=C/c1ccccc1)C(=O)Nc1ccc(Cl)cc1 | no
COc1cc(S(=O)(=O)Nc2nc(-c3ccc(N4C(=O)C(CC(=O)O)SC4c4cccs4)cc3)cs2)ccc1Cl (configuration not stated) | no
CC1(C)CCC2=C(O1)/C(=N\Nc1ccc(S(N)(=O)=O)cc1)c1ccccc1C2=O | no
CC1C[C@@]2(c3ccccc3)C(=O)CCC[C@H]2N1 (some centres not stated) | no

Input line: Could you please tell me the result logged for Nc1nc2c(c(=O)[nH]1)C(c1ccc(Cl)cc1)C=C(c1ccccc1)N2 (configuration not stated) in this assay?
Output line: no

Input line: Param item: N=C(N)n1nc2c(c1O)CCCC2
Output line: no

Input line: Param item: CC(OC(=O)NCn1cc(-c2ccccc2)nn1)c1ccccc1 (configuration not stated)
Output line: no

Input line: Param item: CC(=O)c1ccc(NC(=O)C(=O)CC(=O)c2sc(-n3nc(-c4ccccc4)cc3-c3ccccc3)nc2C)cc1
Output line: no

Input line: Param item: NC1CC(=O)c2csc(Br)c21 (configuration not stated)
Output line: no

Input line: Param item: CS(=O)(=O)OCCN(CCOS(C)(=O)=O)c1ccc(C=O)cc1
Output line: no

Input line: Param item: COc1cccc2c1C(=O)c1ccc3cc(CCl)cc(O)c3c1C2=O
Output line: yes

Input line: Param item: C(=N\CCCN1CCN(CCC/N=C/c2cccc3ccccc23)CC1)/c1cccc2ccccc12
Output line: no

Input line: Param item: CC(Oc1ccc(Cl)cc1Cl)C(=O)NN1C(=O)CSC1c1ccccc1 (configuration not stated)
Output line: no

Input line: Param item: C=C1c2[nH]c3ccccc3c2C2C(CC)C1CCN2C (configuration not stated)
Output line: no

Input line: Param item: CC(=O)OCC1OC(n2cccnc2=O)C(OC(C)=O)C1OC(C)=O (configuration not stated)
Output line: no

Input line: Param item: CCCCCCCCCCCc1nnc(N)o1
Output line: no

Input line: Param item: CC(=O)OC12c3ccccc3-c3ccccc3C1C(C(=O)O)C2(Cl)C(=O)O (configuration not stated)
Output line: no

Input line: Param item: c1ccc(C2=C(c3ccccc3)P(c3ccccc3)C2)cc1 (configuration not stated)
Output line: no

Input line: Param item: O=C1c2ccccc2C(=O)C2C1C1C(=O)c3ccccc3C(=O)C21 (configuration not stated)
Output line: no

Input line: Param item: CCN1C(=O)C(=C/C=C/c2ccc(N(CC)CC)cc2)C(=O)N(CC)C1=S
Output line: no

Input line: Param item: CCOC(=O)C(C(=S)Nc1ccccc1)c1nn2c(=O)cc(C)nc2s1 (configuration not stated)
Output line: no
